- Test system: HCT-15
- ASSAY_EXPLANATION: Cytotoxicity against human HCT15 cells after 72 hrs by SRB assay
- Format: functional, cell-based
- CONDITION_DETAILS: hct-15
PROPERTY_LABEL: IC50

INSERT INTO assay_data (molecule, property_label, result) VALUES
  ('C[C@H]([C@H]1C[C@H](C)[C@@H](C)C(=O)O1)[C@@]1(O)CC[C@H]2[C@@H]3[C@@H]4O[C@@H]4[C@@]4(O)CC=CC(=O)[C@]4(C)[C@H]3CC[C@@]21C', 'IC50', 'Not Active'),
  ('CC1=C(CO)C(=O)O[C@@H]([C@](C)(O)[C@H]2CC[C@H]3[C@@H]4[C@@H]5O[C@@H]5[C@@]5(O)CC=CC(=O)[C@]5(C)[C@H]4CC[C@]23C)C1', 'IC50', 'Not Active'),
  ('CC1=C(CO)C(=O)O[C@@H]([C@@H](C)[C@@]2(O)CC[C@H]3[C@@H]4[C@@H]5O[C@@H]5[C@@]5(O)CC=CC(=O)[C@]5(C)[C@H]4CC[C@@]32C)C1', 'IC50', 'Not Active'),
  ('CC1=C(CO)C(=O)O[C@@H](/C(C)=C2\[C@H](O)C[C@H]3[C@@H]4[C@@H]5O[C@@H]5[C@@]5(O)CC=CC(=O)[C@]5(C)[C@H]4CC[C@]23C)C1', 'IC50', 'Not Active'),
  ('C[C@H]1C[C@H]([C@](C)(O)[C@H]2CC[C@H]3[C@@H]4[C@@H]5O[C@@H]5[C@@]5(O)CC=CC(=O)[C@]5(C)[C@H]4CC[C@]23C)OC(=O)[C@@H]1C', 'IC50', 'Not Active'),
  ('CC1=C(C)C(=O)O[C@@H]([C@](C)(O)[C@@]2(O)CC[C@H]3[C@@H]4[C@@H]5O[C@@H]5[C@@]5(O)CC=CC(=O)[C@]5(C)[C@H]4CC[C@@]32C)C1', 'IC50', 'Not Active'),
  ('CC1=C(C)C(=O)O[C@@H]([C@@H](C)[C@]2(O)CC[C@H]3[C@@H]4[C@@H]5O[C@@H]5[C@@]5(O)CC=CC(=O)[C@]5(C)[C@H]4CC[C@@]32C)C1', 'IC50', 'Not Active'),
  ('CC1=C(C)C(=O)O[C@@H]([C@](C)(O)[C@H]2CC[C@H]3[C@@H]4[C@@H]5O[C@@H]5[C@@]5(O)CC=CC(=O)[C@]5(C)[C@H]4CC[C@]23C)C1 [WITHANOLIDE A]', 'IC50', 'Not Active');
